So I've got a bunch of molecules here, and I need their EC50 values.
Tested on: Xanthomonas axonopodis pv. citri
Assay: microbe, parasite or virus in culture
Type: cell-based
Conditions: Xanthomonas axonopodis
Quick note: unit goes after the number.

molecule="S=c1[nH]nc(NCNc2n[nH]c(=S)s2)s1 [Bismerthiazol, reference compound]" readoutlabel=EC50 testvalue="119 µg/mL"
molecule="Cc1cc(Cl)ccc1OCc1nnc(S(C)(=O)=O)o1 [Compound 5I-5]" readoutlabel=EC50 testvalue="96.8 µg/mL"
molecule="CS(=O)(=O)c1nnc(COc2ccc(F)cc2)o1 [Compound 5I-1]" readoutlabel=EC50 testvalue="80.5 µg/mL"
molecule="CS(=O)(=O)c1nnc(COc2ccc(Cl)cc2Cl)o1 [Compound 5I-4]" readoutlabel=EC50 testvalue="49 µg/mL"
molecule="CS(=O)(=O)c1nnc(COc2ccc(Cl)cc2)o1 [Compound 5I-2]" readoutlabel=EC50 testvalue="31.4 µg/mL"

Please go through the list and note EC50 for each molecule.
1. CCS(=O)(=O)c1nnc(COc2ccc(F)cc2)o1 [Compound 5I-7]
2. CS(=O)(=O)c1nnc(COc2ccccc2)o1 [Compound 5I-6]
3. CS(=O)(=O)c1nnc(COc2ccc(Br)cc2)o1 [Compound 5I-3]

Result:
1: 52.2 µg/mL; 2: 85 µg/mL; 3: 24.9 µg/mL

* * *

System: Xanthomonas oryzae pv. oryzae
Experiment: microbe, parasite or virus in culture
Format: cell-based
Details: Xanthomonas oryzae, read-out: Inhibition rate, X. oryzae, 100 μg/mL, average of three replicates
Please enter T where inhibition at 100 µg/mL is greater than or equal to 90%, and F where it is lower.

Solved cases below.
compound=CS(=O)(=O)c1nnc(COc2ccc(F)cc2)o1 measurementtarget="Xanthomonas oryzae pv. oryzae" categorylabel=T
compound=O=S(=O)(Cc1ccccc1)c1nnc(COc2ccc(F)cc2)s1 measurementtarget="Xanthomonas oryzae pv. oryzae" categorylabel=F
compound=CCS(=O)(=O)c1nnc(COc2ccc(Cl)cc2Cl)s1 measurementtarget="Xanthomonas oryzae pv. oryzae" categorylabel=F
compound=CCS(=O)(=O)c1nnc(COc2ccc(F)cc2)s1 measurementtarget="Xanthomonas oryzae pv. oryzae" categorylabel=F
compound=Cc1cc(Cl)ccc1OCc1nnc(S(C)(=O)=O)o1 measurementtarget="Xanthomonas oryzae pv. oryzae" categorylabel=T
compound=Cc1cc(Cl)ccc1OCc1nnc(S(=O)(=O)Cc2ccccc2)s1 measurementtarget="Xanthomonas oryzae pv. oryzae" categorylabel=F

Request: Decide: inhibition at 100 µg/mL of `CS(=O)(=O)c1nnc(COc2ccc(Cl)cc2)s1` >= 90%?
Result: F

Request: Can `CS(=O)(=O)c1nnc(COc2ccc(Cl)cc2Cl)s1` be said to have inhibition at 100 µg/mL at or above 90%?
Result: F

* * *

Test system: Xanthomonas axonopodis pv. citri
Assay: microbe, parasite or virus in culture
Assay type: cell-based
Conditions: Xanthomonas axonopodis, read-out: Inhibition rate
readoutLabel: inhibition at 200 µg/mL (%)
One number for each entry, in %.

Recorded results for 3 compounds are shown here.
givensmiles=O=S(=O)(Cc1ccccc1)c1nnc(COc2ccc(Cl)cc2Cl)s1 readoutlabel="inhibition at 200 µg/mL" unitstring=% testvalue=38
givensmiles=O=S(=O)(Cc1ccccc1)c1nnc(COc2ccc(F)cc2)s1 readoutlabel="inhibition at 200 µg/mL" unitstring=% testvalue=24
givensmiles=O=S(=O)(Cc1ccccc1)c1nnc(COc2ccccc2)o1 readoutlabel="inhibition at 200 µg/mL" unitstring=% testvalue=76

Each compound below has a reported value. Please supply its inhibition at 200 µg/mL.
1. O=S(=O)(Cc1ccccc1)c1nnc(COc2ccc(Cl)cc2)s1
2. CS(=O)(=O)c1nnc(COc2ccc(Cl)cc2)s1

Result:
1. 14
2. 27

List inhibition at 200 µg/mL for every entry below, keeping the order given.
1. CCS(=O)(=O)c1nnc(COc2ccc(Cl)cc2Cl)s1
2. CS(=O)(=O)c1nnc(COc2ccc(F)cc2)s1
3. CS(=O)(=O)c1nnc(COc2ccc(F)cc2)o1
4. Cc1cc(Cl)ccc1OCc1nnc(S(=O)(=O)Cc2ccccc2)s1

Result:
1: 32; 2: 40; 3: 80; 4: 10
